- System: Fibroblast
- TEST_DESCRIPTION: Multiplex assay against human fibroblast
- Type: toxicity, cell-based
- CONDITION_DETAILS: 48 h, 10 µM, compound concentration 10 uM, replicate 2
VALUE_KIND: Population Mitochondria Different-Phenotype (%)
Just the number in %, nothing appended.

These solved cases illustrate the format of a correct answer.
{"SMILES_INPUT": "CC(C)c1cc(Nc2nc(N3CCC[C@H](N)C3)ncc2C(N)=O)cc(C(C)C)n1", "TESTED_TARGET": "Fibroblast", "TEST_RESULT": 58}
{"SMILES_INPUT": "C=CC(=O)Nc1cc(-n2c(=O)ccc3cnc4ccc(-c5ccc(NS(C)(=O)=O)cc5)cc4c32)ccc1C", "TESTED_TARGET": "Fibroblast", "TEST_RESULT": 1}
{"SMILES_INPUT": "Cc1c(P(=S)(c2ccccc2)c2ccccc2)n2ccccc2[n+]1C/C=C/c1ccccc1.[Br-]", "TESTED_TARGET": "Fibroblast", "TEST_RESULT": 75}
{"SMILES_INPUT": "CC(C)[C@H](CO)Nc1nc(Nc2cccc(Cl)c2)c2ncn(C(C)C)c2n1", "TESTED_TARGET": "Fibroblast", "TEST_RESULT": 59}

Give recorded Population Mitochondria Different-Phenotype (%) with Fibroblast for the following molecule: CCCc1cc(C)[nH]c(=O)c1CNC(=O)c1cc(-c2ccc(N3CCN(C(C)C)CC3)nc2)cc2c1cnn2C(C)C 42
